Overview of recorded viability for various compounds
- assay_procedure: growth inhibitors of H69AR lung tumor, primary screen, human, duplicate replicates (AID 580);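 also: 100% = mean luminescence of untreated wells and 0% = no signal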
- condition_notes: H69AR lung tumor cells viability, ATP luminescence, 72 h; at 10 µM; active compounds read low
Please reply with the bare figure in % and do not write the unit itself.

Examples with their reported viability follow.
| compound | test_result |
| --- | --- |
| O=C(NC1CCCC1)C(c1ccco1)N(Cc1ccccc1)C(=O)c1csnn1 (stereo unspecified) | 97.5 |
| Cc1ccc2[nH]cc(C(=O)CN3CCC4(CC3)OCCO4)c2c1 | 92.2 |
| CCn1c(=S)ccc2ccc(OC)cc21 | 101 |
| O=C(NCCc1ccccc1)C1CCN(S(=O)(=O)N2CCC3(CC2)OCCO3)CC1 | 99.3 |
| Fc1ccc(C(c2nnnn2Cc2ccco2)N2CCN(C3CCCCC3)CC2)cc1 (stereo unspecified) | 94.1 |

Looking for the measured viability of Cc1ccc(NC(=O)Nc2ccc3c(c2)N(C)C(=O)CS3)nc1 , can you help?
88.3

Repeat for the following compound: Cn1c(=O)c(C(=O)Nc2cccnc2)c(O)c2ccccc21
88.4

// repeat for O=C(c1ccco1)N1CCN(/C(=N/S(=O)(=O)c2cccs2)c2ccccc2Cl)CC1 and report
93.1

Record: COCCn1c(COc2ccc(Cl)cc2)nnc1SCC(N)=O
109

Moving on to the next compound: O=C(NCc1ccc2c(c1)OCO2)C1CCCN(S(=O)(=O)c2cccnc2)C1 (stereo unspecified)
92.4

Another compound to check: c1cc(-c2nc3ccccc3o2)nc(-c2nc3ccccc3o2)c1
87.6

###

- assay_procedure: SK-BR-3 cell growth inhibitors, pilot screen, 24 h, human (AID 572);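 also: compound exposure lasted between 18 and 24 h rather than exactly 24 h; 100% = carrier-treated control wells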
- condition_notes: SK-BR-3 viability, CellTiter-Glo luminescence, at 10 µM, active compounds read low
Below is a list of entries, each paired with its recorded viability value.
Give just the numeric value; % need not be written.

Example compounds with recorded viability:
| compound | measure_name | test_result |
| --- | --- | --- |
| Cc1noc(C)c1S(=O)(=O)Nc1c(C)n(C)n(-c2ccccc2)c1=O | viability | 108 |
| CCOC(=O)Cn1c(CN2CCN(c3cccc(Cl)c3)CC2)nc2c1c(=O)[nH]c(=O)n2C | viability | 92.5 |
| CC1CN(Cc2nc3c(c(=O)[nH]c(=O)n3C)n2CC(N)=O)CC(C)O1 (stereo not given) | viability | 99.5 |
| CCc1cccc(NC(=O)C2CCCN(S(=O)(=O)c3c(C)[nH]c(=O)[nH]c3=O)C2)c1 (stereo not given) | viability | 89.5 |
| CN(Cc1ccccc1)Cc1c[nH]c2ccccc12 | viability | 87 |
| COCc1ccccc1Cn1cnc2c1c(=O)n(C)c(=O)n2C | viability | 99 |
| Cc1cc(NC(=O)c2ccc3c(c2)C(=O)N(Cc2cccnc2)C3=O)no1 | viability | 96.5 |
| O=C1C(Cl)=C(N2CCOCC2)C(=O)N1CCc1ccccc1 | viability | 104 |

Quick one: viability for CN(C1CCCCC1)S(=O)(=O)c1ccc(NC(=O)c2ccco2)cc1 ?
91.5

Also, Cc1c(C(=O)OC2CCCCC2)[nH]c2c1C(=O)CC(C)(C)C2 please.
82.5

###

- assay_procedure: SK-BR-3 cell growth inhibitors, pilot screen, 24 h, human (AID 572);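 also: compound exposure lasted between 18 and 24 h rather than exactly 24 h; 100% = carrier-treated control wells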
- condition_notes: SK-BR-3 viability, CellTiter-Glo luminescence, at 10 µM, active compounds read low
Please note: viability exactly at 90% is no. Only values below 90% get yes.

Reference set (10 entries):
| compound | assigned_category |
| --- | --- |
| Cc1ccc2c(CNCc3ccco3)cc(=O)oc2c1 | no |
| Cc1cccc(Nc2nc3c(c(=O)n(C)c(=O)n3C)n2Cc2ccccc2)c1 | no |
| COc1cc(Br)cc(/C=N/c2ncn[nH]2)c1O | no |
| Cc1cc2nc3c(nc2cc1C)C1(C(=O)O)CCC3(C)C1(C)C (centres undefined) | no |
| OC(CCN1CCOCC1)(c1ccc(Cl)cc1)C1CCCCC1 (centres undefined) | yes |
| Cc1ccc(OC(=O)NC2CCS(=O)(=O)C2)cc1C (centres undefined) | no |
| O=C(O)C1C2C=CC(O2)C1C(=O)NCc1ccc(Cl)cc1 (centres undefined) | no |
| COCCn1c(C)cc(C(=O)COC(=O)c2n[nH]c3ccccc23)c1C | no |
| O=C(O)c1cc(/C=N\O)ccc1OCc1ccccc1 | no |
| COc1ccc(-c2cc(C(F)(F)F)nc(N3CCN(c4ccc(F)cc4)CC3)n2)cc1OC | yes |

Would you kindly verify if viability of COc1cccc(N2C(=O)C(O)=C(C(C)=O)C2c2ccc(OC)c(OC)c2)c1 (centres undefined) is strictly less than 90%?
no

Same thing, different compound: CC(C)C(=O)Nc1nnc(CCc2nnc(NC(=O)C(C)C)s2)s1
no

Again, but for Cc1cccc(C(OC(=O)c2ccco2)C(=O)NCc2ccccc2)n1 (centres undefined)
no

What about this compound? CN(Cc1cccs1)CC(O)COCc1ccco1 (centres undefined)
no

Query C=CCn1c(-c2cccs2)nc2nc3ccccc3nc21 next
yes

Queued: Cc1ccc(N2C(=O)c3ccccc3C2Nc2cccnc2)nc1 (centres undefined)
no

Also need COCCn1c(COc2ccc(Cl)cc2)nnc1SCC(N)=O , thanks.
yes

Check O=C(COC(=O)CCC(=O)c1cccs1)NCc1ccco1 too.
no

// same read-out, input: O=C1CC(c2ccco2)=Nc2ccccc2N1
no

Where these numbers come from: PubChem BioAssay
